Data provenance: patent US20060216336A1

Assay: Multiple dose trial with rotating patch application sites in early-stage Parkinson's disease: rotigotine pharmacokinetics (Example 4)
Conditions: human, in vivo, 18 mg/day, rotigotine plasma concentrations, Median, Application Site = Flank; Days 27 & 30 Combined; 23.5 H
measured metric: concentration at […] (ng/mL)
Just the number please, in ng/mL, no unit attached.

stdin: So what's the measured concentration at […] for this one? CCCN(CCc1cccs1)[C@H]1CCc2c(O)cccc2C1 [rotigotine]
stdout: 0.714

====

Test: clinical
Details: human, in vivo, rotigotine plasma concentration Geo. Mean
measured metric: concentration at 7 h (ng/mL)
Just the number please, in ng/mL, no unit attached.

stdin: So what's the measured concentration at 7 h for this one? `CCCN(CCc1cccs1)[C@H]1CCc2c(O)cccc2C1`
stdout: 0.993

====

Experiment: clinical
Settings: human, in vivo, rotigotine plasma concentrations, Median
measured metric: concentration at 10 h (ng/mL)
Just the number please, in ng/mL, no unit attached.

stdin: So what's the measured concentration at 10 h for this one? `CCCN(CCc1cccs1)[C@H]1CCc2c(O)cccc2C1`
stdout: 0.766

====

Experiment: Multiple dose trial with rotating patch application sites in early-stage Parkinson's disease: rotigotine pharmacokinetics (Example 4)
Conditions: human, in vivo, 18 mg/day, rotigotine plasma concentration Min, Thigh; Day 30; 23.5 H
measured metric: concentration at […] (ng/mL)
Just the number please, in ng/mL, no unit attached.

stdin: So what's the measured concentration at […] for this one? `CCCN(CCc1cccs1)[C@H]1CCc2c(O)cccc2C1`
stdout: 0.152

====

Test: clinical
Conditions: human, in vivo, rotigotine plasma concentrations, Median
Text: Each day, a fresh patch was placed on a new skin site (abdomen, flank, upper arm, shoulder, thigh, hip) in a rotating order. The silicone transdermal patches were made in accordance with the teachings of U.S. Patent Application Publication No. US 2003/0026830 at paragraphs 38-42, U.S. Patent Application Publication No. US 2003/0027793 at paragraphs 37-41 and U.S. Pat. No. 6,884,434, columns 5-6, Example 2 and comprised the following layers and components: […]
measured metric: concentration at 12 h (ng/mL)
Just the number please, in ng/mL, no unit attached.

stdin: So what's the measured concentration at 12 h for this one? `CCCN(CCc1cccs1)[C@H]1CCc2c(O)cccc2C1`
stdout: 0.763

====

Assay: Multiple dose trial with rotating patch application sites in early-stage Parkinson's disease: rotigotine pharmacokinetics (Example 4)
Settings: human, in vivo, 18 mg/day, rotigotine plasma concentration Max, Hip, Days 27 & 30 Combined, 23.5 H
measured metric: concentration at […] (ng/mL)
Just the number please, in ng/mL, no unit attached.

stdin: So what's the measured concentration at […] for this one? CCCN(CCc1cccs1)[C@H]1CCc2c(O)cccc2C1 [rotigotine]
stdout: 1.75

====

Test: Multiple dose trial with rotating patch application sites in early-stage Parkinson's disease: rotigotine pharmacokinetics (Example 4)
Conditions: human, in vivo, 18 mg/day, rotigotine plasma concentration Min, Thigh; Days 27 & 30 Combined; 23.5 H
measured metric: concentration at […] (ng/mL)
Just the number please, in ng/mL, no unit attached.

stdin: So what's the measured concentration at […] for this one? CCCN(CCc1cccs1)[C@H]1CCc2c(O)cccc2C1 [rotigotine]
stdout: 0.152

====

Test: clinical
Details: human, in vivo, rotigotine plasma concentration Median
measured metric: concentration at 5 h
I'd appreciate it if you included the unit after the number.

stdin: So what's the measured concentration at 5 h for this one? CCCN(CCc1cccs1)[C@H]1CCc2c(O)cccc2C1 [rotigotine]
stdout: 0.956 ng/mL

====

Assay: clinical
Details: human, in vivo, rotigotine plasma concentration Max
measured metric: concentration at 10 h (ng/mL)
Just the number please, in ng/mL, no unit attached.

stdin: So what's the measured concentration at 10 h for this one? `CCCN(CCc1cccs1)[C@H]1CCc2c(O)cccc2C1`
stdout: 1.98

====

Assay: Multiple dose trial with rotating patch application sites in early-stage Parkinson's disease: rotigotine pharmacokinetics (Example 4)
Details: human, in vivo, 18 mg/day, rotigotine plasma concentration Max, Thigh; Days 27 & 30 Combined; 23.5 H
measured metric: concentration at […]

stdin: So what's the measured concentration at […] for this one? `CCCN(CCc1cccs1)[C@H]1CCc2c(O)cccc2C1`
stdout: 1.59 ng/mL

====

Test: clinical
Conditions: human, in vivo, rotigotine plasma concentration Max
measured metric: concentration at 16 h (ng/mL)
Just the number please, in ng/mL, no unit attached.

stdin: So what's the measured concentration at 16 h for this one? `CCCN(CCc1cccs1)[C@H]1CCc2c(O)cccc2C1`
stdout: 2.53

====

Assay: Multiple dose trial with rotating patch application sites in early-stage Parkinson's disease: rotigotine pharmacokinetics (Example 4)
Conditions: human, in vivo, 18 mg/day, rotigotine plasma concentration Geo. Mean, Hip, Day 27, 23.5 H
Source text: Each day, a fresh patch was placed on a new skin site (abdomen, flank, upper arm, shoulder, thigh, hip) in a rotating order. The silicone transdermal patches were made in accordance with the teachings of U.S. Patent Application Publication No. US 2003/0026830 at paragraphs 38-42, U.S. Patent Application Publication No. US 2003/0027793 at paragraphs 37-41 and U.S. Pat. No. 6,884,434, columns 5-6, Example 2 and comprised the following layers and components: […]
measured metric: concentration at […] (ng/mL)
Just the number please, in ng/mL, no unit attached.

stdin: So what's the measured concentration at […] for this one? `CCCN(CCc1cccs1)[C@H]1CCc2c(O)cccc2C1`
stdout: 0.875

====

Experiment: Multiple dose trial with rotating patch application sites in early-stage Parkinson's disease: rotigotine pharmacokinetics (Example 4)
Conditions: human, in vivo, 18 mg/day, rotigotine plasma concentration Mean, Upper Arm; Days 27 & 30 Combined; 23.5 H
measured metric: concentration at […] (ng/mL)
Just the number please, in ng/mL, no unit attached.

stdin: So what's the measured concentration at […] for this one? CCCN(CCc1cccs1)[C@H]1CCc2c(O)cccc2C1 [rotigotine]
stdout: 0.93

====

Assay: clinical
Details: human, in vivo, rotigotine plasma concentration Median
measured metric: concentration at 20 h (ng/mL)
Just the number please, in ng/mL, no unit attached.

stdin: So what's the measured concentration at 20 h for this one? `CCCN(CCc1cccs1)[C@H]1CCc2c(O)cccc2C1`
stdout: 1.04

====

Experiment: Multiple dose trial with rotating patch application sites in early-stage Parkinson's disease: rotigotine pharmacokinetics (Example 4)
Details: human, in vivo, 18 mg/day, rotigotine plasma concentration Max, Hip, Day 27, 23.5 H
measured metric: concentration at […] (ng/mL)
Just the number please, in ng/mL, no unit attached.

stdin: So what's the measured concentration at […] for this one? CCCN(CCc1cccs1)[C@H]1CCc2c(O)cccc2C1 [rotigotine]
stdout: 1.75

====

Assay: Multiple dose trial with rotating patch application sites in early-stage Parkinson's disease: rotigotine pharmacokinetics (Example 4)
Details: human, in vivo, 18 mg/day, rotigotine plasma concentration Min, Upper Arm; Day 27; 23.5 H
measured metric: concentration at […] (ng/mL)
Just the number please, in ng/mL, no unit attached.

stdin: So what's the measured concentration at […] for this one? `CCCN(CCc1cccs1)[C@H]1CCc2c(O)cccc2C1`
stdout: 0.129

====

Test: Multiple dose trial with rotating patch application sites in early-stage Parkinson's disease: rotigotine pharmacokinetics (Example 4)
Settings: human, in vivo, 18 mg/day, rotigotine plasma concentrations, Geo. Mean, Application Site = Abdomen; Day 30; 23.5 H
measured metric: concentration at […]

stdin: So what's the measured concentration at […] for this one? `CCCN(CCc1cccs1)[C@H]1CCc2c(O)cccc2C1`
stdout: 0.545 ng/mL

====

Assay: Multiple dose trial with rotating patch application sites in early-stage Parkinson's disease: rotigotine pharmacokinetics (Example 4)
Details: human, in vivo, 18 mg/day, rotigotine plasma concentration Median, Hip, Day 30, 23.5 H
measured metric: concentration at […] (ng/mL)
Just the number please, in ng/mL, no unit attached.

stdin: So what's the measured concentration at […] for this one? `CCCN(CCc1cccs1)[C@H]1CCc2c(O)cccc2C1`
stdout: 0.692

====

Experiment: clinical
Settings: human, in vivo, rotigotine plasma concentration Median
measured metric: concentration at 14 h (ng/mL)
Just the number please, in ng/mL, no unit attached.

stdin: So what's the measured concentration at 14 h for this one? CCCN(CCc1cccs1)[C@H]1CCc2c(O)cccc2C1 [rotigotine]
stdout: 1.21

====

Assay: Multiple dose trial with rotating patch application sites in early-stage Parkinson's disease: rotigotine pharmacokinetics (Example 4)
Conditions: human, in vivo, 18 mg/day, rotigotine plasma concentration Median, Thigh; Days 27 & 30 Combined; 23.5 H
measured metric: concentration at […] (ng/mL)
Just the number please, in ng/mL, no unit attached.

stdin: So what's the measured concentration at […] for this one? `CCCN(CCc1cccs1)[C@H]1CCc2c(O)cccc2C1`
stdout: 0.668
